- Test system: EMT-6 mammary tumors
- experiment description: Biodistribution in EMT-6 BALB/C mice
- Type: in vivo
- particulars: 1 hour
So basically: ratio Tumor:blood at 2 or higher? That is satisfied. Lower than 2? That is not satisfied.

Query :: ratio Tumor:blood >= 2 for COc1cc2c(cc1OC)CN(CCCCNC(=O)c1cc(C)cc(OC)c1O[11CH3])CC2 [[^11C]10] ?
Result :: not satisfied

Query :: Check the entry COc1cc2c(cc1OC)CN(CCCCNC(=O)c1cc([125I])cc(OC)c1OC)CC2 [[^125I]6i] : does ratio Tumor:blood equal or exceed 2?
Result :: satisfied

Query :: Check the entry COc1cc2c(cc1OC)CN(CCCCNC(=O)c1cc([76Br])cc(OC)c1OC)CC2 [[^76Br]6] : does ratio Tumor:blood equal or exceed 2?
Result :: satisfied

Query :: Reported ratio Tumor:blood reaches at least 2 for COc1cc2c(cc1OC)CN(CCNC(=O)c1cc([125I])ccc1OC)CC2 [[^125I]8i] ?
Result :: not satisfied

Query :: Given COc1cc2c(cc1OC)CN(CCCCNC(=O)c1cc(Br)cc(OC)c1O[11CH3])CC2 [[^11C]6] , state whether its ratio Tumor:blood is at least 2.
Result :: not satisfied

###

- system under test: σ2 receptor (Rattus norvegicus, UniProt Q5U3Y7)
- Construct: rat liver membrane homogenates (35 μg of protein); from tissue; host or cells: rat liver membrane homogenates
- Sequence (Q5U3Y7 whole entry): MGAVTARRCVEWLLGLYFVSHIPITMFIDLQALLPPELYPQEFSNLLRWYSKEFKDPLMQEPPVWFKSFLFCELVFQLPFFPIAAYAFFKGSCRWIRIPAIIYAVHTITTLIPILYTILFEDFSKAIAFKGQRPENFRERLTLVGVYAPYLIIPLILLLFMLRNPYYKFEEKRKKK
- experiment description: σ2 receptor binding assay, [3H]DTG, rat liver membrane homogenates
- particulars: Table I, unit inferred; read-out: σ2
measurement name: pKi
Expect pKi as a plain number equal to -log10 of the molar concentration.

pKi for COc1cc2c(cc1OC)CN(CCNC(=O)c1cc(C)ccc1OC)CC2 [Compound 9] is 7.88

###

- System: EMT-6 mammary tumors
- experiment description: Biodistribution in EMT-6 BALB/C mice
- Format: in vivo
- particulars: brain, 30 min
measurement name: % ID per gram brain (% ID per gram)
Kindly provide the numeric value in % ID per gram only, without the unit symbol.

Before answering, review these 5 worked examples.
molecule: COc1cc2c(cc1OC)CN(CCCCNC(=O)c1cc([125I])cc(OC)c1OC)CC2 [[^125I]6i]
unit text: % ID per gram
reported result: 0.39
//
molecule: COc1cc2c(cc1OC)CN(CCCCNC(=O)c1cc(Br)cc(OC)c1O[11CH3])CC2 [[^11C]6]
unit text: % ID per gram
reported result: 0.10
//
molecule: COc1cc2c(cc1OC)CN(CCNC(=O)c1cc([125I])ccc1OC)CC2 [[^125I]8i]
unit text: % ID per gram
reported result: 0.20
//
molecule: COc1cc2c(cc1OC)CN(CCNC(=O)c1cc(C)ccc1O[11CH3])CC2 [[^11C]9]
unit text: % ID per gram
reported result: 0.11
//
molecule: COc1cc2c(cc1OC)CN(CCCCNC(=O)c1cc([76Br])cc(OC)c1OC)CC2 [[^76Br]6]
unit text: % ID per gram
reported result: 0.41

Attention now turns to another entry.
The molecule identified as COc1cc2c(cc1OC)CN(CCCCNC(=O)c1cc(C)cc(OC)c1O[11CH3])CC2 [[^11C]10] registered its % ID per gram brain at 0.28

###

- System: EMT-6 mammary tumors
- experiment description: Biodistribution in EMT-6 BALB/C mice
- Format: in vivo
- particulars: tumor, 5 min
Mark Fulfilled for reported % ID per gram tumor of 3 % ID per gram or greater; mark Not fulfilled for anything smaller.

compound: COc1cc2c(cc1OC)CN(CCNC(=O)c1cc(C)ccc1O[11CH3])CC2 [[^11C]9]
class: Fulfilled

Query :: Quick check, % ID per gram tumor >= 3 % ID per gram? COc1cc2c(cc1OC)CN(CCCCNC(=O)c1cc([125I])cc(OC)c1OC)CC2 [[^125I]6i]
Result :: Fulfilled

Query :: Quick check, % ID per gram tumor >= 3 % ID per gram? COc1cc2c(cc1OC)CN(CCCCNC(=O)c1cc(C)cc(OC)c1O[11CH3])CC2 [[^11C]10]
Result :: Fulfilled

Query :: Could you verify whether the entry COc1cc2c(cc1OC)CN(CCCCNC(=O)c1cc(Br)cc(OC)c1O[11CH3])CC2 [[^11C]6] shows % ID per gram tumor of no less than 3 % ID per gram?
Result :: Not fulfilled

Query :: Evaluate COc1cc2c(cc1OC)CN(CCCCNC(=O)c1cc([76Br])cc(OC)c1OC)CC2 [[^76Br]6] : % ID per gram tumor at minimum 3 % ID per gram?
Result :: Fulfilled
